- Test system: NF-κB activation in 697 pre-B cell line
- Procedure details: NF-κB reporter gene assay in 697 pre-B cells (PMA/ionomycin induced)
- Format: cell-based
- Test settings: read-out: Potency in 697 pre-B cell line (NF-κB reporter)
- Source text: Phenotypic screening for noncanonical NF-κB pathway selective inhibitors of IL-8 production in HEK 293, HEK 293T (ML029) and 697 pre-B cells (ML236 and ML237): Most pathways for NF-κB activation converge on the IκB kinases (IKKs), and more than nine signaling routes have been identified. […]
Measured attribute: IC50 (nM)
Form entry: value (nM) — number only.

Q: State, in one line, measured IC50 of `CNC(=O)CCc1nc(-c2ccc(C(C)(C)C)cc2)no1`
Result: 35

Q: State, in one line, measured IC50 of `CCOc1ccc(-c2nc(CSCC(=O)NC3CC3)c(C)o2)cc1`
Result: 200

---

Provide the recorded PAMPA Pe, donor pH 6.2 for the entries that follow.
- Procedure details: PAMPA (parallel artificial membrane permeability assay)
- Assay type: in vitro ADME
- Test settings: donor pH 6.2, acceptor pH 7.4, compound at 50 μM

Q: State, in one line, measured PAMPA Pe, donor pH 6.2 of CCOc1ccc(-c2nc(CSCC(=O)NC3CC3)c(C)o2)cc1 [Probe 12]
Result: 541 10^−6 cm/s

Q: State, in one line, measured PAMPA Pe, donor pH 6.2 of CNC(=O)CCc1nc(-c2ccc(C(C)(C)C)cc2)no1 [Probe 8]
Result: 755 10^−6 cm/s

Q: State, in one line, measured PAMPA Pe, donor pH 6.2 of C/C=C/Cn1c(SCCCc2ccccc2)nc2c1c(=O)[nH]c(=O)n2C [Probe 17]
Result: 1516 10^−6 cm/s

Q: State, in one line, measured PAMPA Pe, donor pH 6.2 of Cc1ccc(S(=O)(=O)n2c(N)nc3ccccc32)cc1 [Probe 13]
Result: 562 10^−6 cm/s

Q: State, in one line, measured PAMPA Pe, donor pH 6.2 of Cc1cc2nc(NCCCO)n(CC(=O)c3cc(C(C)(C)C)c(O)c(C(C)(C)C)c3)c2cc1C [Probe 4]
Result: 710 10^−6 cm/s

---

- Test system: NF-κB activation in HEK 293T cells
- Procedure details: NF-κB reporter gene assay in HEK 293T cells
- Format: cell-based, human
- Test settings: Homo sapiens; HEK 293T cells; read-out: Activity in HEK 293T cell line (NF-κB reporter)
pIC50: −log10 of the molar value.
Measured attribute: pIC50

Q: State, in one line, measured pIC50 of `Cc1cc2nc(NCCCO)n(CC(=O)c3cc(C(C)(C)C)c(O)c(C(C)(C)C)c3)c2cc1C`
Result: < 4.52

---

- Procedure details: Aqueous solubility
- Format: physicochemical
- Test settings: across pH 5 to 7.4
Measured attribute: Solubility (in words)

[[record]]
sample_smiles = "CNC(=O)CCc1nc(-c2ccc(C(C)(C)C)cc2)no1"
measured_attribute = "Solubility (in words)"
recorded_result = "good solubility"

[[record]]
sample_smiles = "Cc1cc2nc(NCCCO)n(CC(=O)c3cc(C(C)(C)C)c(O)c(C(C)(C)C)c3)c2cc1C"
measured_attribute = "Solubility (in words)"
recorded_result = "good solubility"

[[record]]
sample_smiles = "CCOc1ccc(-c2nc(CSCC(=O)NC3CC3)c(C)o2)cc1"
measured_attribute = "Solubility (in words)"
recorded_result = "good solubility"

